Test system: OVCAR-5
experiment summary: NCI tumour cell line growth inhibition, 48 h
Active and inactive are the calls of the source. No stated cut-off is given here; in the data, active = GI50 up to about 1.1 µM and inactive = higher.
Items are presented alongside their recorded GI50.
measure name: GI50

compound	test result
CCOC(=O)c1c(Br)c(-c2ccc(Br)cc2)c(Br)n1C	19.4 µM (inactive)
CCCCCCCCCCOc1ccc(/N=N/c2nnc(-c3ccc(OCCCCC)cc3)s2)cc1	> 100 µM (inactive)
C[C@]12CCC(=O)C(O)=C1CC[C@@H]1C2CC[C@]2(C)Nc3c(cnn3-c3ccccc3)CC12 (stereo not given in full)	> 100 µM (inactive)
CC(C)(C)[Si](C)(C)OCC1CCC(n2cnc3c(NC(=O)c4ccccc4)ncnc32)O1 (stereo not given)	16.7 µM (inactive)
CSc1ncc2c(n1)-c1ccccc1OC2N1CCOCC1 (stereo not given)	> 100 µM (inactive)

---

Tested on: M14
experiment summary: NCI tumour cell line growth inhibition, 48 h
Active and inactive are the calls of the source. Cut-off read from the data, not from the text of the source: active = GI50 up to about 1.1 µM and inactive = higher.
The entries below come with measured GI50 values attached.
measure name: GI50

compound	system name	measure name	test result
O=[N+]([O-])c1ccc(NN=C2c3ccccc3Cc3ccccc32)c([N+](=O)[O-])c1	M14	GI50	5.81 µM (inactive)
COc1ccc2c(c1OC)C(=O)O[C@@H]2[C@H]1c2cc3c(cc2CCN1C)OCO3	M14	GI50	> 100 µM (inactive)
CC(=O)O[C@H]1CC[C@@]2(C)[C@@H](CC[C@@H]3[C@@H]2CC(=O)[C@@]2(C)[C@H]3C[C@@H]3CC(C)=CC(=O)[C@@H]32)C1	M14	GI50	29.7 µM (inactive)
CN(C)CC1CC/C(=C\c2ccc(Cl)c(Cl)c2)C1=O (centres undefined)	M14	GI50	18.9 µM (inactive)
Cc1c(Cl)cccc1NC(=O)C(=O)C1C(=O)CC(C)(C)CC1=O	M14	GI50	> 100 µM (inactive)
CN(C(=O)c1cc2c(s1)sc1c(=O)n(C)c3ccccc3c12)c1ccccc1	M14	GI50	50.9 µM (inactive)
C1CN2CCN3CCN4CCN1[PH]243	M14	GI50	> 100 µM (inactive)
C[C@]12CCC(=O)C(O)=C1CC[C@@H]1C2CC[C@]2(C)Nc3c(cnn3-c3ccccc3)CC12 (some centres undefined)	M14	GI50	> 100 µM (inactive)
CCOC(=O)c1cc(=O)c2ccnc3c2n1CCS3	M14	GI50	> 100 µM (inactive)

---

Listed next: entries and their corresponding GI50.
Tested on: CCRF-CEM
experiment summary: NCI tumour cell line growth inhibition, 48 h
Activity calls are given as the source filed them. Cut-off read from the data, not from the text of the source: active = GI50 up to about 1.1 µM and inactive = higher.

compound	system name	GI50
BrC1(c2ccccc2)C[n+]2c(-c3ccccc3)cc(-c3ccccc3)cc2-c2ccccc21 (stereo not given)	CCRF-CEM	0.52 µM (active)
CC(=O)SC(SC(C)=O)SC(C)=O	CCRF-CEM	22.5 µM (inactive)
c1ccc2c(Nc3ncco3)cccc2c1	CCRF-CEM	> 10 µM (inactive)
Oc1ccc[n+](Cc2ccccc2)c1	CCRF-CEM	> 100 µM (inactive)
CCc1c[n+]2c(cc1C1=CN3c4ccccc4[C@]45CCN6C/C(=C/CO)[C@H](C[C@H]64)[C@@H]([C@@H]1O)[C@H]35)-c1[nH]c3ccccc3c1CC2	CCRF-CEM	> 50 µM (inactive)

---

Below is a list of entries, each paired with its recorded GI50 value.
Test system: LXFL 529
experiment summary: NCI tumour cell line growth inhibition, 48 h
Active and inactive are the calls of the source. Rule as the data show it: active = GI50 up to about 1.1 µM and inactive = higher.
measure name: GI50

molecule	measure name	test result
COc1cc2c(cc1OC)CC(=O)Nc1cc(OC)c(OC)cc1CC2	GI50	> 73.3 µM (inactive)
O=C(Nc1ccc(Cl)c(Cl)c1)C(=O)Nn1c(S)nc2ccccc2c1=O	GI50	> 100 µM (inactive)
CCCCCCCCC(O)C#CC(N)=O (stereo unspecified)	GI50	11.2 µM (inactive)
CCCCCCCCCCCCCCCCNCCCN(C)CCCN	GI50	18.6 µM (inactive)
CNC(=O)/C(=C/c1ccc(OC)cc1)c1cc(OC)c(OC)c(OC)c1	GI50	4.43 µM (inactive)
COCOCCC#CCO	GI50	83.6 µM (inactive)
CCOC(=O)C(C(=O)OCC)=C1C=C(c2ccccc2)c2ccccc21	GI50	53.2 µM (inactive)
CCOC(=O)C(=Cc1ccc(C(=O)OC)cc1)C(=O)OCC	GI50	1.75 µM (inactive)
Cc1cc2c(cc1C)[n+]([O-])c(C(=O)CC(=O)C(=O)Nc1c(C(C)C)cccc1C(C)C)c(C)[n+]2[O-]	GI50	> 100 µM (inactive)
OCC(O)C(O)C(O)c1nn(-c2ccccc2)c2nc3cc(Cl)c(Cl)cc3nc12 (stereo unspecified)	GI50	57.5 µM (inactive)
COC(=O)c1c/c(=N\NC(=O)CC(=O)Nc2ccc(C)cc2)c2ccccc2o1	GI50	> 100 µM (inactive)

---

Test system: TK-10
experiment summary: NCI tumour cell line growth inhibition, 48 h
The source made the active and inactive calls. No stated cut-off is given here; in the data, active = GI50 up to about 1.1 µM and inactive = higher.

molecule	system name	GI50
COC(=O)c1c/c(=N\NC(=O)CC(=O)Nc2ccc(C)cc2)c2ccccc2o1	TK-10	> 100 µM (inactive)
Cn1c(N)nc2c(nc(OCc3ccccc3)n2C2OC(CO)C(O)C2O)c1=O (centres undefined)	TK-10	> 100 µM (inactive)
CCOC(=O)CCC(NC(=O)OCc1ccccc1)C(=O)NC(CCC(=O)OCC)C(=O)NC(CCC(=O)OCC)C(=O)NC(CCC(=O)OCC)C(=O)NC(CCC(=O)OCC)C(=O)NC(CCC(=O)OCC)C(=O)NC(CCC(=O)OCC)C(=O)OCC (centres undefined)	TK-10	> 100 µM (inactive)
CC(C)(C)n1nc(C2CC2)cc1NC(=O)Nc1ccc(Cl)cc1	TK-10	> 100 µM (inactive)

---

Test system: T47D
experiment summary: NCI tumour cell line growth inhibition, 48 h
Active and inactive are the calls of the source. Rule as the data show it: active = GI50 up to about 1.1 µM and inactive = higher.
Labels: active, inactive

compound	assigned label
Cc1c(-c2ccccc2)c(C#N)c2nnn(-c3ccc(Cl)cc3)c(=O)n12	inactive
O=C(O)CCc1ccc(-c2ccccc2)[nH]1	inactive
CCOC(=O)Nc1ccc(S(=O)(=O)Nc2ccc(Br)cc2)cc1	inactive
O=C(NO)c1ccc(OCc2cccc(Cl)c2)cc1	inactive
CC(=O)OCC(OC(C)=O)C(OC(C)=O)C(OC(C)=O)C(C=NN(C(C)=O)S(=O)(=O)c1ccc(/C=C2\NC(=O)N(C)C2=O)cc1)OC(C)=O (stereo unspecified)	inactive
N=c1c2ccccc2nc2oc3cc([N+](=O)[O-])ccc3n12	active
CNC(C#N)c1ccc(OC)cc1 (stereo unspecified)	inactive
O=c1[nH]nc(Cc2ccccc2)n1/N=C/c1ccccc1Cl	inactive
COC(=O)CCc1ccc(CCC(=O)OC)cc1	inactive
Cc1ccc(S(=O)(=O)c2c(O)c3ccccc3n(C)c2=O)cc1	inactive
O=C1C2CCCCC2C(=O)N1n1c(-c2ccccc2)n[nH]c1=O (stereo unspecified)	inactive

---

Tested on: Hs-578T
experiment summary: NCI tumour cell line growth inhibition, 48 h
Activity calls are given as the source filed them. No stated cut-off is given here; in the data, active = GI50 up to about 1.1 µM and inactive = higher.

molecule	GI50
O=S(=O)(O)SCCNCCCCCC1CCCCC1	14.5 µM (inactive)
CCP(=O)(CC)C(Cl)(Cl)C(=O)NC	> 100 µM (inactive)
C[C@@H]1[C@@H](c2ccccc2)O[B-](c2ccccc2)(c2ccccc2)N1C	33.4 µM (inactive)
O=c1n(Cc2ccccc2)c(=O)n2c(=O)n(Cc3ccccc3)c(=O)n12	> 100 µM (inactive)
Brc1ccc(-c2cn3ccncc3n2)cc1	> 100 µM (inactive)
COc1ccc(N2C(=O)C3c4[nH]c5ccc(OC)cc5c4C4CCC(c5ccccc5)CC4C3C2=O)cc1 (stereo unspecified)	1.6 µM (inactive)

---

Test system: SN12C
experiment summary: NCI tumour cell line growth inhibition, 48 h
Calls of active or inactive are those of the source. No stated cut-off is given here; in the data, active = GI50 up to about 1.1 µM and inactive = higher.
# maps each entry to its GI50

compound	GI50
Cc1ccc(C)c(NC(=O)c2cc(-c3ccc([N+](=O)[O-])cc3)nc(N)n2)c1	> 100 µM (inactive)
Oc1nc2c(c(-c3ccc(F)cc3)n1)COC/C2=C\c1ccc(F)cc1	> 100 µM (inactive)
Cc1c(-c2ccccc2)c(-c2ccc(OCCN(C)C)cc2)n2ccccc12	12.1 µM (inactive)
O=c1n(CC2CO2)c(=O)n(CC2CO2)c(=O)n1CC1CO1 (stereo not given)	7.83 µM (inactive)
CCCCCCCCCCOc1ccc(/N=N/c2nnc(-c3ccc(OCCCCC)cc3)s2)cc1	> 100 µM (inactive)
O=C1C(Cl)=C(NCCN2CCOCC2)C(=O)c2c(O)ccc(O)c21	1.79 µM (inactive)
CSc1ncc2c(n1)-c1ccccc1OC2N1CCOCC1 (stereo not given)	50 µM (inactive)
Cc1cc(NC(=O)NC(=O)c2ccccc2NC(=O)CN)ccc1Oc1ncc(Br)cn1	1.16 µM (inactive)
COC(=O)c1c(OC(C)=O)ccc2c1c1c(OC(C)=O)c3ccccc3c(OC(C)=O)c1n2Cc1cc(OC)cc(OC)c1	45.7 µM (inactive)
Cn1c2c(c3ccccc31)C1CCCCC1C1C(=O)NC(=O)C21 (stereo not given)	33.2 µM (inactive)
CS(=O)(=O)OCC(CCl)(CCl)CCl	> 100 µM (inactive)
CCOC(=O)Nc1ccc(S(=O)(=O)Nc2ccc(Br)cc2)cc1	59.8 µM (inactive)
O=C1CC(C(OCc2ccccc2)C(OCc2ccccc2)C(COCc2ccccc2)OCc2ccccc2)CC(=O)N1 (stereo not given)	> 75 µM (inactive)
O=C1CC(=O)NC(NN2C(=O)/C(=C/c3ccc(Cl)cc3)N=C2c2ccccc2)=N1	16.8 µM (inactive)
Cc1nc2ccccc2c(=O)n1/N=C(\N=N\c1cccc(Cl)c1)c1ccccc1Cl	> 100 µM (inactive)
